Please go through the items and note down their MDCK-MDR1: % Recov B-A.
- Test system: MDR1-MDCK cell monolayers
- protocol text: MDCK-MDR1 permeability assay (BBB penetration potential)
- Assay type: in vitro ADME
- particulars: dog, MDCK-MDR1, 120 min, 5 μM, pH 7.4
Could you give me the number in %? Just the number is fine.

Ask | Give the reported MDCK-MDR1: % Recov B-A for this molecule. COc1cc(-c2ccc(-c3ccc(O[C@H]4C[C@]5(C)CC[C@@](C)(N5)[C@H]4F)nn3)c(O)c2)cnn1 (single isomer, unassigned) [157-ENT2]
Reply | 81

Ask | Kindly indicate its recorded MDCK-MDR1: % Recov B-A. Item: Cn1cc(-c2ccc(-c3ccc(O[C@H]4C[C@@H]5CCC[C@@H](N5)[C@H]4F)nn3)c(O)c2)c(F)n1 (single isomer, unassigned) [109-ENT2]
Reply | 80

Ask | Output MDCK-MDR1: % Recov B-A of Cn1ccc(-c2ccc(-c3ccc(O[C@@H]4C[C@H]5CCC[C@H](N5)[C@@H]4F)nn3)c(O)c2)cc1=O (single isomer, unassigned) [54-ENT1]
Reply | 105

Ask | Identify the reported MDCK-MDR1: % Recov B-A for the following entry. CNC(=O)c1ccc2cc(-c3ccc(O[C@H]4C[C@]5(C)CCC[C@@](C)(N5)[C@H]4F)nn3)c(O)cc2n1 (single isomer, unassigned) [137-ENT1]
Reply | 70

Ask | Provide measured MDCK-MDR1: % Recov B-A value, entry: Cn1cc(-c2cc(O)c(-c3ccc(O[C@@H]4C[C@H]5CCC[C@H](N5)[C@@H]4F)nn3)cc2Cl)cn1 (single isomer, unassigned) [120-ENT1]
Reply | 77

###

Provide the recorded Papp A→B at 120 min, 5 μM for the entries that follow.
- System: MDR1
- protocol text: MDCK-MDR1 permeability assay (BBB penetration potential)
- Type: in vitro ADME
- particulars: dog, MDCK-MDR1, pH 7.4, MDCK-MDR1: Papp A-B
Could you give me the number in ×10⁻⁶ cm/s? Just the number is fine.

Ask | State measured Papp A→B at 120 min, 5 μM of the compound Cc1nc(-c2ccc(-c3ccc(O[C@H]4C[C@@H]5CCC[C@@H](N5)[C@H]4F)nn3)c(O)c2)cs1 (single isomer, unassigned) with MDR1.
Reply | 4.96

Ask | Under MDR1: report Papp A→B at 120 min, 5 μM of O=c1cc(-c2cc(O)c(-c3ccc(O[C@H]4C[C@@H]5CCC[C@@H](N5)[C@H]4F)nn3)cc2F)cc[nH]1 (single isomer, unassigned) .
Reply | 0.35

Ask | Recall the reported Papp A→B at 120 min, 5 μM of Cn1ccc(-c2ccc(-c3ccc(O[C@H]4C[C@@H]5CCC[C@@H](N5)[C@H]4F)nn3)c(O)c2)n1 (single isomer, unassigned) on MDR1 and write it down.
Reply | 8.23

Ask | Recall the reported Papp A→B at 120 min, 5 μM of Oc1cc2ncccc2cc1-c1ccc(O[C@@H]2C[C@H]3CCC[C@H](N3)[C@@H]2F)nn1 (single isomer, unassigned) on MDR1 and write it down.
Reply | 3.92

Ask | Report the value of Papp A→B at 120 min, 5 μM obtained on MDR1 for Oc1cc(-c2nnco2)c(F)cc1-c1ccc(O[C@H]2C[C@@H]3CCC[C@@H](N3)[C@H]2F)nn1 (single isomer, unassigned) .
Reply | 6.56

Ask | // output Papp A→B at 120 min, 5 μM; input Oc1cc(-n2ccnc2)ccc1-c1ccc(O[C@H]2C[C@@H]3CC[C@@H](N3)[C@H]2F)nn1 (single isomer, unassigned) ; system MDR1
Reply | 5.41

Ask | Please tell me the measured Papp A→B at 120 min, 5 μM for Cc1ncc(-c2ccc(-c3ccc(O[C@H]4C[C@@H]5CCC[C@@H](N5)[C@H]4F)nn3)c(O)c2)o1 (single isomer, unassigned) ; system: MDR1.
Reply | 9.43

Ask | // fetch Papp A→B at 120 min, 5 μM for Cc1ncc(-c2ccc(-c3ccc(O[C@H]4C[C@@H]5CCC[C@@H](N5)[C@H]4F)nn3)c(O)c2)s1 (single isomer, unassigned) ; system: MDR1
Reply | 6.73

Ask | // output Papp A→B at 120 min, 5 μM; input Cn1cc(-c2ccc(-c3ccc(O[C@H]4C[C@@H]5CCC[C@@H](N5)[C@H]4F)nn3)c(O)c2)oc1=O (single isomer, unassigned) ; system MDR1
Reply | 3.11

Ask | Print MDR1 Papp A→B at 120 min, 5 μM for Cn1ccc(-c2ccc(-c3ccc(O[C@@H]4C[C@H]5CCC[C@H](N5)[C@@H]4F)nn3)c(O)c2)nc1=O (single isomer, unassigned) .
Reply | 0.11

Ask | State Papp A→B at 120 min, 5 μM (MDR1) of Cn1cc(-c2ccc(-c3ccc(O[C@H]4C[C@@H]5CCC[C@@H](N5)[C@@H]4F)nn3)c(O)c2)cn1 (single isomer, unassigned) .
Reply | 4.62

Ask | Output reported Papp A→B at 120 min, 5 μM of the compound Oc1cc(-c2ccn3ccnc3c2)ccc1-c1ccc(O[C@H]2C[C@@H]3CCC[C@@H](N3)[C@H]2F)nn1 (single isomer, unassigned) on MDR1.
Reply | 0.77

Ask | Recall the reported Papp A→B at 120 min, 5 μM of Cn1cnc(-c2ccc(-c3ccc(O[C@H]4C[C@]5(C)CCC[C@@](C)(N5)[C@H]4F)nn3)c(O)c2)cc1=O (single isomer, unassigned) when tested on MDR1.
Reply | 1.97

Ask | Find the measured Papp A→B at 120 min, 5 μM of Oc1cc(-c2cn[nH]c2)ccc1-c1ccc(O[C@@H]2C[C@H]3C[C@H](F)C[C@@H](C2)N3)nn1 with MDR1 as test system.
Reply | 1.01

Ask | GET Papp A→B at 120 min, 5 μM where system = MDR1 and item = Cn1cc(-c2ccc(-c3ccc(O[C@@H]4C[C@@]5(C)CC[C@](C)(N5)[C@@H]4F)nn3)c(O)c2)cn1 (single isomer, unassigned)
Reply | 9.06

Ask | Check MDR1 data and give Papp A→B at 120 min, 5 μM for CN(C)C(=O)c1cc2cc(O)c(-c3ccc(O[C@@H]4C[C@@]5(C)CCC[C@](C)(N5)[C@@H]4F)nn3)cc2o1 (single isomer, unassigned) .
Reply | 3.71

Ask | Give Papp A→B at 120 min, 5 μM for Oc1cc2nccnc2cc1-c1ccc(O[C@H]2C[C@@H]3CCC[C@@H](N3)[C@H]2F)nn1 (single isomer, unassigned) tested on MDR1.
Reply | 10.1

Ask | Report Papp A→B at 120 min, 5 μM from MDR1 testing of Oc1cc2ccncc2cc1-c1ccc(O[C@H]2C[C@@H]3CCC[C@@H](N3)[C@H]2F)nn1 (single isomer, unassigned)
Reply | 9.23

Ask | Give reported Papp A→B at 120 min, 5 μM for Cn1ccc2cc(O)c(-c3ccc(O[C@@H]4C[C@H]5CC[C@H](N5)[C@@H]4F)nn3)cc2c1=O (single isomer, unassigned) (MDR1)
Reply | 4.94

Ask | Give Papp A→B at 120 min, 5 μM only, for Cn1ccc(=O)c2cc(O)c(-c3ccc(O[C@H]4C[C@]5(C)CCC[C@@](C)(N5)[C@H]4F)nn3)cc21 (single isomer, unassigned) [132-ENT1] , using MDR1 data.
Reply | 0.1

###

- Test system: MDR1
- protocol text: MDCK-MDR1 permeability assay (BBB penetration potential)
- Format: in vitro ADME
- particulars: dog, MDCK-MDR1, pH 7.4, MDCK-MDR1: Efflux
Reported efflux ratio at 120 min, 5 μM maps to class as: low: < 5; moderate: ≥ 5 and < 10; high: ≥ 10

Ask | Record Oc1cc(-c2cc[nH]n2)ccc1-c1ccc(O[C@@H]2C[C@H]3CCC[C@H](N3)[C@@H]2F)nn1 (single isomer, unassigned) [66-ENT1] — which class?
Reply | high

Ask | Please indicate the class for C[C@@]12CC[C@@](C)(N1)[C@@H](F)[C@@H](Oc1ccc(-c3ccc(-n4cccn4)cc3O)nn1)C2 (single isomer, unassigned) [153-ENT2] based on its efflux ratio at 120 min, 5 μM.
Reply | low

Ask | Looking at Cn1ccc(=O)c2cc(-c3ccc(O[C@H]4C[C@]5(C)CCC[C@@](C)(N5)[C@H]4F)nn3)c(O)cc21 (single isomer, unassigned) [131-ENT1] , which class would you pick?
Reply | high

Ask | Which efflux ratio at 120 min, 5 μM category applies to Cc1ncn(-c2ccc(-c3ccc(O[C@@H]4C[C@H]5CCC[C@H](N5)[C@@H]4F)nn3)c(O)c2)n1 (single isomer, unassigned) [70-ENT1] here?
Reply | moderate

Ask | Class (by measured efflux ratio at 120 min, 5 μM) for Oc1cc(-c2ccn3ccnc3c2)ccc1-c1ccc(O[C@@H]2C[C@H]3CCC[C@H](N3)[C@@H]2F)nn1 (single isomer, unassigned) [83-ENT1]
Reply | high

Ask | Quick check: band for Cn1cc(-c2ccc(-c3ccc(O[C@H]4C[C@]5(C)CCC[C@@](C)(N5)[C@H]4F)nn3)c(O)c2)cn1 (single isomer, unassigned) [154-ENT1]
Reply | low

Ask | Determine which band this compound sits in: Oc1cc(-c2ccn3cnnc3c2)ccc1-c1ccc(O[C@H]2C[C@@H]3CCC[C@@H](N3)[C@H]2F)nn1 (single isomer, unassigned) [86-ENT2]
Reply | high

Ask | Which of the defined bands does the recorded efflux ratio at 120 min, 5 μM of Cn1cc(-c2ccc(-c3ccc(O[C@@H]4C[C@H]5CCC[C@H](N5)[C@@H]4F)nn3)c(O)c2)cn1 (single isomer, unassigned) [1-ENT1] sit within?
Reply | moderate

Ask | Hi there! Could you help me figure out the category for Cn1cnc(-c2ccc(-c3ccc(O[C@H]4C[C@@H]5CCC[C@@H](N5)[C@H]4F)nn3)c(O)c2)cc1=O (single isomer, unassigned) [138-ENT2] please?
Reply | high

Ask | Textbook exercise: identify the category of the compound given here, Oc1cc(-n2ccnc2)ccc1-c1ccc(O[C@H]2C[C@@H]3CC(F)(F)[C@H](C2)N3)nn1 (single isomer, unassigned) [51-ENT2] , according to its measured value.
Reply | low

Ask | # bin label for Oc1cc(-c2cn[nH]c2)ccc1-c1ccc(O[C@H]2C[C@@H]3CC[C@@H](N3)[C@H]2F)nn1 (single isomer, unassigned) [42-ENT1]
Reply | high

Ask | Hey, which category is Cn1ccc2cc(O)c(-c3ccc(O[C@H]4C[C@@H]5CCC[C@@H](N5)[C@H]4F)nn3)cc2c1=O (single isomer, unassigned) [128-ENT1] in, do you know?
Reply | moderate

Ask | Categorize the following entry: Cn1cc(-c2ccc(-c3ccc(O[C@H]4C[C@@H]5CCC[C@@H](N5)[C@H]4F)nn3)c(O)c2F)cn1 (single isomer, unassigned) [119-ENT2]
Reply | low
